system: P94_40; assay: qHTS profiling for inhibitors of Plasmodium falciparum proliferation (AID 504749); also: nearly all actives have a fitted effect of over 60% in size; details: P. falciparum in erythrocytes, SYBR Green DNA, 72 h; series mostly up to 28.7 µM
Inconclusive results are not listed. The source made the active and inactive calls. Calls follow the shape of the dose curve; as a rule, active = well fitted inhibition curve with a large enough effect; inconclusive = small, poorly fitted or top-dose-only effect; inactive = flat fitted curve, though single readings scatter.
Possible outcomes: 1 for active, -1 for inactive

molecule	experimental-system	class-assignment
COc1ccc2cc([C@H](C)C(=O)O)ccc2c1	P94_40	-1
COc1cc(OC)c(C(=O)CCCN2CCCC2)c(OC)c1	P94_40	-1
O=C(NC(Cc1cc(=O)[nH]c2ccccc12)C(=O)O)c1ccc(Cl)cc1 (configuration not stated)	P94_40	-1
Cc1c(OCC(F)(F)F)ccnc1CS(=O)c1nc2ccccc2[nH]1 (configuration not stated)	P94_40	-1
COCCCOc1ccnc(CS(=O)c2nc3ccccc3[nH]2)c1C (configuration not stated)	P94_40	-1
O=C(O)c1cccc(-c2noc(-c3ccccc3F)n2)c1	P94_40	-1
Cc1c(C(=O)NN2CCCCC2)nn(-c2ccc(Cl)cc2Cl)c1-c1ccc(Cl)cc1	P94_40	1
O=C(O)CCNC(=O)c1ccc(N=Nc2ccc(O)c(C(=O)O)c2)cc1	P94_40	-1
CC(C)c1ccc2oc3nc(N)c(C(=O)O)cc3c(=O)c2c1	P94_40	-1
O=C(O)c1cccnc1Nc1cccc(C(F)(F)F)c1	P94_40	-1
Clc1ccc(C(Cn2ccnc2)OCc2ccsc2Cl)c(Cl)c1 (configuration not stated)	P94_40	1
CC1(C)NC(=O)N(c2ccc([N+](=O)[O-])c(C(F)(F)F)c2)C1=O	P94_40	-1
C=CCc1cc(OC)c(O)c(C(=O)NCCO)c1	P94_40	-1
CCOc1cc(CC(=O)N[C@@H](CC(C)C)c2ccccc2N2CCCCC2)ccc1C(=O)O	P94_40	-1
CNC[C@H](O)c1ccc(O)c(O)c1	P94_40	-1
CCCOc1ccc2nc(NC(=O)OC)[nH]c2c1	P94_40	-1
CC1(C)CCC(C)(C)c2cc(NC(=O)c3ccc(C(=O)O)cc3)ccc21	P94_40	-1
CCC(C)(Oc1ccc(C2(c3ccc(OC(C)(CC)C(=O)O)cc3)CCCCC2)cc1)C(=O)O (configuration not stated)	P94_40	-1
CN(C)c1ccc2nc3ccc(=[N+](C)C)cc-3sc2c1	P94_40	1
Cn1c(NCCN(CCO)CCCc2ccc([N+](=O)[O-])cc2)cc(=O)n(C)c1=O	P94_40	-1
CC(C)[C@H](N)C(=O)OCCOCn1cnc2c(=O)[nH]c(N)nc21	P94_40	-1
CCN(CC)CCOc1ccc(Cc2ccccc2)cc1	P94_40	-1
CCN(CCO)CCCC(C)Nc1ccnc2cc(Cl)ccc12 (configuration not stated)	P94_40	-1
CC1=C(C)C(=O)C(C(CCCCCC(=O)O)c2ccccc2)=C(C)C1=O (configuration not stated)	P94_40	-1
Cc1nc2n(c(=O)c1CCN1CCC(c3noc4cc(F)ccc34)CC1)CCCC2	P94_40	-1
O=c1oc2cc(O)ccc2s1	P94_40	-1
Cc1cc2c(s1)Nc1ccccc1N=C2N1CCN(C)CC1	P94_40	-1
CS(=O)(=O)OCCCCOS(C)(=O)=O	P94_40	-1
COc1cc2c(cc1OC)C1CC(=O)C(CC(C)C)CN1CC2 (configuration not stated)	P94_40	-1
CC(S)C(=O)NCC(=O)O (configuration not stated)	P94_40	-1
CN(C)C(=O)COC(=O)Cc1ccc(OC(=O)c2ccc(N=C(N)N)cc2)cc1	P94_40	-1
Nc1ccc(S(N)(=O)=O)cc1	P94_40	-1
